Give measured Max OD450 for each item. Keep answers brief.
- SYSTEM_UNDER_TEST: T1, monkey CDH6 protein (cynoCDH6 ECD-his) (monkey (cyno), UniProt A0A2K5TW62 19-615)
- T1 construct: range 19-615; also called Cyno CDH6-his; not shown: his tag
- T1 sequence: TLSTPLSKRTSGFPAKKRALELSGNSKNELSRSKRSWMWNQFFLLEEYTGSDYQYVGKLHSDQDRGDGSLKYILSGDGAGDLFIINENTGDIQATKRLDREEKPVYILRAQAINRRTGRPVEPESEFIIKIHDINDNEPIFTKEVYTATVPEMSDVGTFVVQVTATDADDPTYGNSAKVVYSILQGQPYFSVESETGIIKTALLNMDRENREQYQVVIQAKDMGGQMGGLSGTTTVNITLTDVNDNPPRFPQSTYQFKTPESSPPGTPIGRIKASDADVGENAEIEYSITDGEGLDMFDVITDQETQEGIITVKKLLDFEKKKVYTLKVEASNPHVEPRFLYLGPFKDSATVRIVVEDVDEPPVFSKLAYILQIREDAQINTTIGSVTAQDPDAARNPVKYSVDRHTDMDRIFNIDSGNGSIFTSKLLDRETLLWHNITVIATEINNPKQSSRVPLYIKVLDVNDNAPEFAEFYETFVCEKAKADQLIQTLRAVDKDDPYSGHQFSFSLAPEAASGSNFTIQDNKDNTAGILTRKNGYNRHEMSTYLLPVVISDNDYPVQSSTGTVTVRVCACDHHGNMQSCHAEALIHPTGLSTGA
- PROTOCOL_DETAILS: ELISA, coated antigen
Please state the figure in OD450; there is no need to write the unit.

Prompt: For NOV0712 (antibody, human IgG1, kappa, V domains shown, Positive control, variable regions from WO2018212136A1; also called positive control anti-human CDH6 antibody) VH: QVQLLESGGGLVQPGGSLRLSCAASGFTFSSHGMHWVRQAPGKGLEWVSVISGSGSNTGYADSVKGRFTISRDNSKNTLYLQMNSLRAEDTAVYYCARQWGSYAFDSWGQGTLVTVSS VL: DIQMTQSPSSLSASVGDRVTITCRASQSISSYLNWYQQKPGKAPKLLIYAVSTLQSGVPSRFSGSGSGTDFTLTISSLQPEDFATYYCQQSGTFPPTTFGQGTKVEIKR , what is its reported Max OD450?
Completion: 2.44

Prompt: For CHI-CDH6-11 (antibody, human IgG1, kappa, V domains shown, also called chimeric antibody of murine CDH6-11) VH: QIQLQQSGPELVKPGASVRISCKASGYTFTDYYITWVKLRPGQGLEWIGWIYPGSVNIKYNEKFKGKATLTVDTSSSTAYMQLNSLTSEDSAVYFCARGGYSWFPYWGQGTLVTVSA VL: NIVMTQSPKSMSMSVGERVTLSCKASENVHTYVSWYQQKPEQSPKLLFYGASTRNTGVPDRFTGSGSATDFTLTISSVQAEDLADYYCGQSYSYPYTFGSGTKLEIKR , what is its reported Max OD450?
Completion: 2.32

Prompt: For CHI-CDH6-4 (antibody, human IgG1, kappa, V domains shown, also called CH1-CDH6-4; chimeric antibody of murine CDH6-4) VH: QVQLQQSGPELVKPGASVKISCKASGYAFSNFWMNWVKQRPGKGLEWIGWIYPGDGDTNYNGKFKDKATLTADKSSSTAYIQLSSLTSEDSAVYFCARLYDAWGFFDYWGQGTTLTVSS VL: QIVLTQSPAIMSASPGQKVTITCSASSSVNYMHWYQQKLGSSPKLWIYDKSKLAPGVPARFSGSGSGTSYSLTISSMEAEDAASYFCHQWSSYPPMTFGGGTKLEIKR , what is its reported Max OD450?
Completion: 2.23

Prompt: For CHI-CDH6-3 (antibody, human IgG1, kappa, V domains shown, also called CH1-CDH6-3; chimeric antibody of murine CDH6-3) VH: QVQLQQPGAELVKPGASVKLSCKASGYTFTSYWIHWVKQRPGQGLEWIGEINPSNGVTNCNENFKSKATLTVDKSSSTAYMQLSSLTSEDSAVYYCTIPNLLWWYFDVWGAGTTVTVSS VL: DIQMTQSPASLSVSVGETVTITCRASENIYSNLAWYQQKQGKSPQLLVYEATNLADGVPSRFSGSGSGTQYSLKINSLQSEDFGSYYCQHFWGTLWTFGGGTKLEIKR , what is its reported Max OD450?
Completion: 2.64

Prompt: For CHI-CDH6-13 (antibody, human IgG1, kappa, V domains shown, also called chimeric antibody of murine CDH6-13) VH: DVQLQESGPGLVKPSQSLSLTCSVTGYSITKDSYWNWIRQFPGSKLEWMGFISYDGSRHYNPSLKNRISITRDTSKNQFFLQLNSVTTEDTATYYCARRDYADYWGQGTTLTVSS VL: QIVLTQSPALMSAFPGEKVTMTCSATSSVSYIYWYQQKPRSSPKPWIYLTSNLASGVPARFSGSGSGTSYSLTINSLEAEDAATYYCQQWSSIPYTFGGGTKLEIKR , what is its reported Max OD450?
Completion: 2.72

Reference source for all entries: patent US20260234242A1
